All values here come from paper PMC11932207.

# Target under test: GluA2/3 (UniProt P19491+P42263)
# Construct: expressed in transfected cells; host or cells: HEK293T (HEK293) cells, transient co-transfection
# Sequence (P42263 29-894 isoform P42263-2 limits assumed, one chain of several): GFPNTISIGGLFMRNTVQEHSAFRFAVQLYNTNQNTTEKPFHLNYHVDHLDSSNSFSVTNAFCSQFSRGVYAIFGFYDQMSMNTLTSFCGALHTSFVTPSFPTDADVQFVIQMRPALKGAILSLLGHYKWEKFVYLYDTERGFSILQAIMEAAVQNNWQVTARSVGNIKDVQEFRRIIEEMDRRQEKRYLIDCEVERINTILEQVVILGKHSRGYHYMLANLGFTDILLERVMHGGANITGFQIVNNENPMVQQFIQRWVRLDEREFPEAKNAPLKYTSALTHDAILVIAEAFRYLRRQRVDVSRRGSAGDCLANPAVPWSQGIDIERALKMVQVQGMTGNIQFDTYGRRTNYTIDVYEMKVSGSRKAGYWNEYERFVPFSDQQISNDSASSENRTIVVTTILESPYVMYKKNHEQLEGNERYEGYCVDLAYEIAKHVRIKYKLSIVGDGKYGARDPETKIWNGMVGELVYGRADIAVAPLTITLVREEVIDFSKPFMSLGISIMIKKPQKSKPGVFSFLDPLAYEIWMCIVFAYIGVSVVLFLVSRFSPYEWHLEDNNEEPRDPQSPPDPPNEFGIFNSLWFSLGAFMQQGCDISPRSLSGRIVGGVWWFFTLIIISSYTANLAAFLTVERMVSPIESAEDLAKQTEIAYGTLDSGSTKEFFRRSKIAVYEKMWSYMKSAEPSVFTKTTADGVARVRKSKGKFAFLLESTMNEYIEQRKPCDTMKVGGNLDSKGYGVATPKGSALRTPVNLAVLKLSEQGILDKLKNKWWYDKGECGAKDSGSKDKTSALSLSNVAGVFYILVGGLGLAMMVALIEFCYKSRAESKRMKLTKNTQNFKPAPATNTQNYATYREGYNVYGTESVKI
# Assay notes: Whole-cell patch clamp recordings of heteromeric GluA2/3 AMPA receptor currents and kinetics in transfected HEK293t cells
# Assay type: cell-based
# Assay context: 10 mM glutamate for 1 ms, with compound, mean ± SD
Measurement label: t deact (weighted deactivation time constant)
Just the number plus its unit, please.

Example entries and their recorded answers appear below.
# Molecule, Result
records = [
    ("Cc1onc(-c2c(F)cccc2Cl)c1C(=O)Nc1ccc(OC(F)(F)F)cc1 [CIC-11]", "2.9 ± 0.2 ms"),
    ("Cc1onc(-c2c(Cl)cccc2Cl)c1C(=O)Nc1ccccc1 [CIC-8]", "4.9 ± 0.3 ms"),
    ("Cc1onc(-c2c(Cl)cccc2Cl)c1C(=O)Nc1ccc(OC(F)(F)F)cc1 [CIC-10]", "4.3 ± 0.2 ms"),
]

So, CSc1ccc(NC(=O)c2c(-c3c(Cl)cccc3Cl)noc2C)cc1 [CIC-1] ? Its t deact (weighted deactivation time constant) was 8.1 ± 0.4 ms

So, Cc1onc(-c2c(Cl)cccc2Cl)c1C(=O)Nc1ccc(-c2ccccc2)cc1 [CIC-9] ? Its t deact (weighted deactivation time constant) was 4.5 ± 0.3 ms

====

# Target under test: GluA2 (Rattus norvegicus)
# Construct: expressed in transfected cells; host or cells: HEK293T (HEK293) cells, transient co-transfection with a separate EGFP vector
# Sequence (P19491 22-883 isoform P19491-2 limits assumed): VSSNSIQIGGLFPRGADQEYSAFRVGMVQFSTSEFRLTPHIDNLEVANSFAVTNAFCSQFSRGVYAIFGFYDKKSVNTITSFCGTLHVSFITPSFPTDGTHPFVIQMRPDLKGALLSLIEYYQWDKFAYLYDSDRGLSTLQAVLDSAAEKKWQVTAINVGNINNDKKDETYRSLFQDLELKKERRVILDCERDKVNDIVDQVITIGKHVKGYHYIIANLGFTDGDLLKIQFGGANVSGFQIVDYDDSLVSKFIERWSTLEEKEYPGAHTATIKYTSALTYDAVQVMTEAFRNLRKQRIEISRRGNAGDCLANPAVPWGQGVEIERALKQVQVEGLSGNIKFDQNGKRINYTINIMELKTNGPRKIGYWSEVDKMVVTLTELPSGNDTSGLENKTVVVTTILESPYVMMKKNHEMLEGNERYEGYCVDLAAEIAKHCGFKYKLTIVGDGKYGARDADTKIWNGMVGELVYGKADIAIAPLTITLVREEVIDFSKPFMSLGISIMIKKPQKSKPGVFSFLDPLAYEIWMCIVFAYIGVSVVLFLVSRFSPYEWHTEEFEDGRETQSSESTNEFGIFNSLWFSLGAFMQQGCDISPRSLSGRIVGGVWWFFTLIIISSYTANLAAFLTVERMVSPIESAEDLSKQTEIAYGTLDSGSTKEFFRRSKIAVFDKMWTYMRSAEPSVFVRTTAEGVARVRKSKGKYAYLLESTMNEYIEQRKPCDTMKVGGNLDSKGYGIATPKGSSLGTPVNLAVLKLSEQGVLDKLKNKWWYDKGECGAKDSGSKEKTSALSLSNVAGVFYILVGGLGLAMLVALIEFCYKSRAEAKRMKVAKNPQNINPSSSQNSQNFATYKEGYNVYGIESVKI
# Assay notes: Whole-cell patch clamp recordings of homomeric GluA2 AMPA receptor currents and kinetics in transfected HEK293t cells
# Type: cell-based
# Assay context: 10 mM glutamate for 1 ms, with compound, mean ± SD
Items are presented alongside their recorded t deact (weighted deactivation time constant).
Give the value in ms but do not write ms after it.

# Smiles, Readout number
rows = [
    ("COc1cc(NC(=O)c2c(-c3c(Cl)cccc3Cl)noc2C)c(OC)cc1Cl", 7.9),
    ("COc1cc(NC(=O)c2c(-c3c(Cl)cccc3Cl)noc2C)cc(OC)c1", 6.3),
    ("CSc1ccc(NC(=O)c2c(-c3c(Cl)cccc3Cl)noc2C)cc1", 8.3),
    ("Cc1onc(-c2c(Cl)cccc2Cl)c1C(=O)Nc1ccc(-c2ccccc2)cc1", 4.6),
    ("Cc1onc(-c2c(Cl)cccc2Cl)c1C(=O)Nc1ccc(OC(F)(F)F)cc1", 4.4),
]

Consider the record given below.
So, `Cc1onc(-c2c(F)cccc2Cl)c1C(=O)Nc1ccc(OC(F)(F)F)cc1` ? Its t deact (weighted deactivation time constant) was 3.0

====

# Target under test: GluA2/3 (UniProt P19491+P42263)
# Construct: expressed in transfected cells; host or cells: HEK293T (HEK293) cells, transient co-transfection
# Assay notes: Whole-cell patch clamp recordings of heteromeric GluA2/3 AMPA receptor currents and kinetics in transfected HEK293t cells
# Format: cell-based
# Assay context: 10 mM glutamate for 1 ms, with compound, mean ± SD
Measurement label: t deact (weighted deactivation time constant) (ms)
Give the value in ms but do not write ms after it.

# Smiles, Readout number
records = [
    ("COc1ccc(NC(=O)c2c(-c3c(Cl)cccc3Cl)noc2C)cc1OC", 5.3),
]

Consider the record given below.
So, `Cc1onc(-c2c(Cl)cccc2Cl)c1C(=O)Nc1ccc(C(C)(C)C)cc1` ? Its t deact (weighted deactivation time constant) was 2.8
